- Assay Name: Biorelevant solubility
- Assay type: physicochemical
- Experimental Conditions: biorelevant media (FaSSIF-supplemented Tris-maleate buffer), fassif, thermodynamic from solid; 37 °C, biorelevant media pH 6.5 (3 mM taurocholate, 0.75 mM phospholipids), mean ± SD, n = 3
Measured Endpoint: solubility
Give your result as the value with the unit written after it.

Form field: reported solubility of CC1(C)CCC(CN2CCN(c3ccc(C(=O)NS(=O)(=O)c4ccc(NCC5CCOCC5)c([N+](=O)[O-])c4)c(Oc4cnc5[nH]ccc5c4)c3)CC2)=C(c2ccc(Cl)cc2)C1 [venetoclax]
5.5 µg/mL

====

- Assay Name: Biorelevant solubility
- Assay type: physicochemical
- Experimental Conditions: 37 °C, biorelevant media pH 6.5 (3 mM taurocholate, 0.75 mM phospholipids), mean ± SD, n = 3
Measured Endpoint: biorelevant solubility (µg/mL)
Express your answer in µg/mL, writing the number without its unit.

Form field: reported biorelevant solubility of CC1(C)CCC(CN2CCN(c3ccc(C(=O)NS(=O)(=O)c4ccc(NCC5CCOCC5)c([N+](=O)[O-])c4)c(Oc4cnc5[nH]ccc5c4)c3)CC2)=C(c2ccc(Cl)cc2)C1.CCCCCCCCS(=O)(=O)O [venetoclax octanesulfonate]
7.4

Form field: reported biorelevant solubility of CC1(C)CCC(CN2CCN(c3ccc(C(=O)NS(=O)(=O)c4ccc(NCC5CCOCC5)c([N+](=O)[O-])c4)c(Oc4cnc5[nH]ccc5c4)c3)CC2)=C(c2ccc(Cl)cc2)C1.CCCCCCCCOS(=O)(=O)O [venetoclax octyl sulfate]
7.7

Form field: reported biorelevant solubility of CC1(C)CCC(CN2CCN(c3ccc(C(=O)NS(=O)(=O)c4ccc(NCC5CCOCC5)c([N+](=O)[O-])c4)c(Oc4cnc5[nH]ccc5c4)c3)CC2)=C(c2ccc(Cl)cc2)C1.CCCCCCCCCCCCCCCCCCOS(=O)(=O)O [venetoclax octadecyl sulfate]
8.4

Form field: reported biorelevant solubility of CC1(C)CCC(CN2CCN(c3ccc(C(=O)NS(=O)(=O)c4ccc(NCC5CCOCC5)c([N+](=O)[O-])c4)c(Oc4cnc5[nH]ccc5c4)c3)CC2)=C(c2ccc(Cl)cc2)C1.CCCCC(CC)COC(=O)CC(C(=O)OCC(CC)CCCC)S(=O)(=O)O [venetoclax docusate]
16.2

Form field: reported biorelevant solubility of CC1(C)CCC(CN2CCN(c3ccc(C(=O)NS(=O)(=O)c4ccc(NCC5CCOCC5)c([N+](=O)[O-])c4)c(Oc4cnc5[nH]ccc5c4)c3)CC2)=C(c2ccc(Cl)cc2)C1.CCCCCCCCCCCCS(=O)(=O)O [venetoclax dodecanesulfonate]
9.8

Form field: reported biorelevant solubility of CC1(C)CCC(CN2CCN(c3ccc(C(=O)NS(=O)(=O)c4ccc(NCC5CCOCC5)c([N+](=O)[O-])c4)c(Oc4cnc5[nH]ccc5c4)c3)CC2)=C(c2ccc(Cl)cc2)C1.CCCCCCCCCCOS(=O)(=O)O [venetoclax decyl sulfate]
10.3
